Test system: spontaneously hypertensive rats
Experimental Protocol: Hypotensive effect: systolic blood pressure of spontaneously hypertensive rats
Type: in vivo
Condition Details: dose 50mg/kg oral; at 1.5 hours; mmHg per method
Readout Name: B.P. (systolic blood pressure reduction) (mm)
Form entry: value (mm) — number only.

Worked cases, answers included:
[[record]]
compound = "COC(COC(=O)C1=C(C)NC2=C(C(=O)CNC2)C1c1cccc(Cl)c1Cl)c1ccccc1 (stereo not drawn)"
result_value = -53

[[record]]
compound = "COC(COC(=O)C1=C(C)NC2=C(C(=O)CNC2)C1c1c(F)cccc1Cl)c1ccccc1 (stereo not drawn)"
result_value = -37

[[record]]
compound = "CC1=C(C(=O)OC(C)COc2ccccc2)C(c2c(F)c(F)c(F)c(F)c2F)C2=C(CNCC2=O)N1 (stereo not drawn)"
result_value = -35


Lookup: Which measured B.P. (systolic blood pressure reduction) belongs to CC1=C(C(=O)OCCOc2ccccc2)C(c2cccc(Cl)c2Cl)C2=C(CNCC2=O)N1 (stereo not drawn) , tested on spontaneously hypertensive rats?
Found: -50

Lookup: Which measured B.P. (systolic blood pressure reduction) belongs to CC1=C(C(=O)OCC2COc3ccccc3O2)C(c2c(F)c(F)c(F)c(F)c2F)C2=C(CNCC2=O)N1 (stereo not drawn) , tested on spontaneously hypertensive rats?
Found: -46

Lookup: Which measured B.P. (systolic blood pressure reduction) belongs to COC(COC(=O)C1=C(C)NC2=C(C(=O)CNC2)C1c1cccc(Cl)c1)c1ccccc1 (stereo not drawn) , tested on spontaneously hypertensive rats?
Found: -29
